// provenance: PubChem BioAssay

# methodDescription: small-molecule microarray binders of probe aLefty2, primary screen, biochemical, biotinylated probe, 635/667 nm fluorescence (AID 1094);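 also: score merges spot fluorescence near 667 nm with spot signal-to-noise ratio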
# studyConditions: higher = more signal
Quick rule for you: composite z-score at -0.04 or higher means T, lower means F.

C=C(CCCC)C(=O)CC[C@H](OC(C)=O)c1ccc(OCCO)cc1: F
C=CCC(OC(C)=O)[C@@H]1[C@@H](N(Cc2ccc(-c3ccccc3)cc2)C(=O)Cc2ccc(F)cc2)c2cc(OCCCO)ccc2N1C(=O)Cc1ccc2ccccc2c1 (some centres undefined): T
COC(=O)C1=CC(CCCO)=CC(c2ccc(CN3CCCC3)cc2)N(Cc2cc3c(cc2Br)OCO3)C=C1C(=O)OC (centres undefined): T
CCOC(=O)C[C@H]1[C@H](OC(=O)c2ccc(-c3ccccc3)cc2)[C@@H](NC(=O)CC(C)C)c2cc(OCCCO)ccc2N1C(=O)c1ccccc1: F
COc1cc2c(cc1O)C(c1ccc(CN3CCCC3)cc1)N(C)CC2 (centres undefined): F
[N-]=[N+]=Nc1ccccc1[C@@H]1OC(c2ccc(OCCCO)cc2)=N[C@]1(Cc1ccccc1)C(=O)NCc1ccccc1: T
CC1CC/C=C\[C@H]2OC34C=CCN(C(C)(C)C)C(=O)[C@H]3N(C(CO)C(C)C)C(=O)[C@@H]4C2C(=O)O1 (some centres undefined): F
C=C[C@@H](C)[C@@H](OC(=O)Nc1ccc(SC)cc1)c1ccc(OCCO)cc1: F
CCOC(=O)C=Cc1ccccc1O: F
CCN(CC)c1ccc(N2CC=CC34O[C@@H]5C=CCCOC(=O)C5[C@H]3C(=O)N(CCO)[C@@H]4C2=O)cc1 (some centres undefined): F

(Q) Does O=C1[C@@]23C=C(Br)[C@H](C[C@@H]2COC3)[C@@]12CO2 have a reported composite z-score of at least -0.04?
(A) F

(Q) Dear colleague, could you confirm whether COCCCNC(=O)[C@@]1(c2ccc([N+](=O)[O-])cc2)CC(=O)N(C(C)C)[C@@H]1c1ccc(CO)cc1 has composite z-score at or above -0.04?
(A) T

(Q) Determine whether this molecule has composite z-score no lower than -0.04: COC(=O)C(CC#Cc1ccc2c(c1)[C@]1(C(=O)N2)[C@H](c2ccc(OCCO)cc2)N2[C@H](c3ccccc3)[C@H](c3ccccc3)OC(=O)[C@H]2[C@@H]1C(=O)N1CCN(c2ncccn2)CC1)C(=O)OC
(A) T

(Q) Check this molecule for composite z-score at or above -0.04: CCCCCCCCCCC(O)C1C=CC2C(=O)N(c3ccccc3)C(=O)C2N1Nc1ccccc1F (centres undefined)
(A) F

(Q) Kindly determine if composite z-score recorded for [N-]=[N+]=NCc1ccccc1[C@H]1OC(c2ccc(OCCCO)cc2)=N[C@@]1(Cc1ccccc1)C(=O)NCCN1CCOCC1 is above or exactly -0.04.
(A) T

(Q) Say whether COCCOC(=O)N1C(=O)[C@@]2(c3cc(C#CC4(O)CCCCCC4)ccc31)[C@H](c1ccc(OCCO)cc1)N1[C@H](c3ccccc3)[C@H](c3ccccc3)OC(=O)[C@H]1[C@@H]2C(=O)Nc1nc2ccccc2s1 shows composite z-score of -0.04 or more.
(A) T

(Q) Does the molecule C[C@@H]1ON(c2ccc(I)cc2)[C@H](c2ccc(OC(=O)OC(C)(C)C)cc2)[C@H]1C(=O)N1C(=O)OC[C@H]1Cc1ccccc1 have recorded composite z-score that is -0.04 or more?
(A) F
